- System: Escherichia coli TOP10;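 also: peptides expressed intracellularly from a pBAD plasmid library in pooled LB shake-flask culture, induced with 0.3% L-arabinose, DNA abundance read by NGS, three biological replicates, DESeq2 with apeglm shrinkage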
- test: shrunken log2 fold change of peptide-encoding DNA abundance (4.5 h post-induction vs induction); higher = less antimicrobial activity (less host growth inhibition)
- condition_set: time post-induction: 4.5 h; library: site-saturation at positions 5, 18, 19, 20
readout_name: shrunken log2 fold change
Numbers only.

Field: example entries. Status: answers known.
RRIRVRPPRLPRPRPRPDWQPRP 0.0968
RRIRHRPPRLPRPRPRPRFRPRP -0.105
RRIRKRPPRLPRPRPRPDHRPRP 0.139
RRIRGRPPRLPRPRPRPLMYPRP -0.00226
RRIRWRPPRLPRPRPRPSYKPRP -0.479
RRIRHRPPRLPRPRPRPMRKPRP 0.0179
RRIRIRPPRLPRPRPRPGFPPRP 0.186
RRIRARPPRLPRPRPRPCSLPRP -0.272
RRIRLRPPRLPRPRPRPMLVPRP -0.225
RRIRIRPPRLPRPRPRPHFYPRP -0.407

Kindly give each listed record's shrunken log2 fold change.
1. RRIRMRPPRLPRPRPRPSNFPRP
2. RRIRNRPPRLPRPRPRPQQAPRP

-0.192
-0.356
